Exercise: state measured melting point for each of the compounds provided.

Reference set (3 entries):
1. CCC(c1ccc(OC)cc1)N1C(=O)c2ccccc2C1=O (stereo not shown) :: 85 to 86 °C
2. COc1ccc(C(C)N2C(=O)c3ccccc3C2=O)cc1OC (stereo not shown) :: 124 to 125 °C
3. CCCC(CCC)C(c1ccc(OC)c(OC)c1)N1C(=O)c2ccccc2C1=O (stereo not shown) :: 100 to 101 °C

Below: the item to evaluate.
COc1ccc(CN2C(=O)c3ccccc3C2=O)cc1OC has a reported melting point of 160 to 161 °C
